Measured values drawn from paper PMC7583046 for this set.

# study_system: T1, human importin α3 (Impα3), intact (human, UniProt O00629 1-521)
# T1 construct: Human importin α3 (KPNA4), intact protein with the IBB domain, residues 1-521; Purification as for ∆Impα3; also called KPNA4; source: E. coli BL21 (DE3), purified (codon-optimized DNA synthesized by NZYtech, in the pHTP1 vector)
# T1 sequence (looked up): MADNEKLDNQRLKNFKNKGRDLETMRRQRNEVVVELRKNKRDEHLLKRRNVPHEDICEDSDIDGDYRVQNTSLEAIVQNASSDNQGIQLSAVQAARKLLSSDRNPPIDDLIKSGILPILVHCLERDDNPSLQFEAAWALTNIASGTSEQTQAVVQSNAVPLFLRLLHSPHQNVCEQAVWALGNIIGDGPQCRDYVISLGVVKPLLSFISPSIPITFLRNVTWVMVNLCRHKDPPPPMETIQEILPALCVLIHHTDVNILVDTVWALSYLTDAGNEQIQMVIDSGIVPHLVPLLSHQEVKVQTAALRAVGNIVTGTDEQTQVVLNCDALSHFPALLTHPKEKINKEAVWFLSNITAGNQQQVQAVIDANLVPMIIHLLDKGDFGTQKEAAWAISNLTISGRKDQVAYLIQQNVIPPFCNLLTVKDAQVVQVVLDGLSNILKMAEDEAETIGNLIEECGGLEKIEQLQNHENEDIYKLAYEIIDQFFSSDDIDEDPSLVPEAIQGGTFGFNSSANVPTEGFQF
# assay_method_text: other fluorescence titration; importin (0-10 μM) added to a fixed concentration of NUPR1L (8 μM) or NLS-NUPR1L (8.5 μM); 50 mM phosphate buffer, pH 7.0, 298 K; excitation at 280 nm; apparent dissociation constants
# measurement_setup: both partners purified
outcome_measure: pKd
The quantity pKd is defined as the negative base-10 logarithm of the molar concentration.

Prompt: May I ask what pKd has been recorded for Ac-RTRREQALRTNWPAPGGHERKVAQ-NH2 (NUPR1L residues Arg51 to Gln74, the predicted NLS region; numbering as in intact NUPR1L; also called NLS-NUNPR1L; source: synthetic peptide (NZYtech, purity of 95%)) [NLS-NUPR1L, peptide of the nuclear localization sequence of NUPR1L (residues 51-74)] ?
Completion: 5.52
